The molecules listed here are annotated with their IC50.
- Test system: BLT1 and BLT2 receptors
- measurement-description: Ca2+ Flux Assay for LTB4 Antagonist Assay
- Type: cell-based, Human
- applied-conditions: inhibition of LTB4-induced Ca2+ flux (FLIPR), Retinoic Acid induced HL-60 cells endogenously expressing BLT1 and BLT2; read-out: IC50
Please make sure the unit comes right after the number.

Example molecules with recorded IC50:
>>> result("O=C(O)CCCOc1cccc(CCCCCCOc2cc(-c3ccncc3)cc(-c3ccc4c(c3)OCO4)c2)c1CCC(=O)O [Example 20]")
"210 pM"
>>> result("O=C(O)CCCOc1cccc(CCCCCCOc2cc(-c3ccncc3)cc(-c3ccsc3)c2)c1CCC(=O)O [Example 14]")
"200 pM"
>>> result("O=C(O)CCCOc1cccc(CCCCCCSc2cc(-c3ccccc3)cc(-c3ccccc3)c2)c1CCC(=O)O [Example 7]")
"75000 pM"
>>> result("O=C(O)CCCOc1cccc(CCCCCCOc2cc(-c3ccccc3)cc(-c3ccccc3F)c2)c1CCC(=O)O [Example 97]")
"250 pM"
>>> result("O=C(O)CCCOc1cccc(CCCCCCOc2cc(-c3ccccc3)cc(-c3ccccc3)c2)c1CCC(=O)O [Example 2]")
"210 pM"

Could you now look at the following molecule, please?
Task: Please provide the recorded IC50 for O=C(O)CCCOc1cccc(CCCCCCOc2cc(-c3ccsc3)cc(-c3ccsc3)c2)c1CCC(=O)O [Example 56] , tested on BLT1 and BLT2 receptors.
Result: 580 pM

====

Known pIC50 of a selection of molecules
- Tested on: BLT1 and BLT2 receptors
- measurement-description: Ca2+ Flux Assay for LTB4 Antagonist Assay
- Type: cell-based, Human
- applied-conditions: inhibition of LTB4-induced Ca2+ flux (FLIPR), Retinoic Acid induced HL-60 cells endogenously expressing BLT1 and BLT2; read-out: IC50
As a rule, pIC50 stands for the negative log10 of the concentration, concentration in M.

>>> recorded_number("COc1ccc(-c2cc(OCCCCCCc3cccc(OCCCC(=O)O)c3CCC(=O)O)cc(-c3ccc(OC)cc3)c2)cc1")
9.21
>>> recorded_number("O=C(O)CCCOc1cccc(CCCCCCOc2cc(-c3cncnc3)cc(-c3ccsc3)c2)c1CCC(=O)O")
9.41
>>> recorded_number("O=C(O)CCCOc1cccc(CCCCCC#Cc2cc(-c3ccccc3)cc(-c3ccccc3)c2)c1CCC(=O)O")
8.57
>>> recorded_number("O=C(O)CCCOc1cccc(CCCCCCOc2cc(-c3ccsc3)cc(-c3ccnc(Cl)c3)c2)c1CCC(=O)O")
9.24
>>> recorded_number("O=C(O)CCCOc1cccc(CCCCCCOc2cc(-c3ccsc3)cc(-c3ccc4c(c3)OCO4)c2)c1CCC(=O)O")
9.68

Task: Form field - read-out: pIC50; system: BLT1 and BLT2 receptors; submitted item: O=C(O)CCCOc1cccc(CCCCCCOc2cc(-c3ccccc3)cc(-c3ccsc3)c2)c1CCC(=O)O
Result: 9.44

Task: Now consider O=C(O)CCCOc1cccc(CCCCCCOc2cc(-c3cccnc3)cc(-c3cccnc3)c2)c1CCC(=O)O .
Result: 9.19

Task: And then Cc1cc(-c2cc(OCCCCCCc3cccc(OCCCC(=O)O)c3CCC(=O)O)cc(-c3ccc(N(C)C)cc3)c2)ccc1F , what is it?
Result: 9.33

Task: O=C(O)CCCOc1cccc(CCCCCCOc2cc(-c3ccnc(F)c3)cc(-c3ccnc(F)c3)c2)c1CCC(=O)O , same question.
Result: 9.77

Task: Okay, and O=C(O)CCCOc1cccc(CCCCCCOc2cc(-c3ccncc3)cc(-c3cccc(F)c3)c2)c1CCC(=O)O ?
Result: 9.74

Task: What do you have for O=C(O)CCCOc1cccc(CCCCCCCc2cc(-c3ccc4c(c3)OCO4)cc(-c3ccc4c(c3)OCO4)c2)c1CCC(=O)O ?
Result: 7.37

Task: Proceed to O=C(O)CCCOc1cccc(CCCCCCOc2cc(-c3ccccc3)cc(-c3ccc(OC(F)(F)F)cc3)c2)c1CCC(=O)O
Result: 9.24

Task: Another molecule to check: O=C(O)CCCOc1cccc(CCCCCCOc2cc(-c3ccncc3)cc(-c3ccc4c(c3)OCCO4)c2)c1CCC(=O)O
Result: 9.64

Task: Entry O=C(O)CCCOc1cccc(CCCCCCOc2cc(-c3ccccn3)cc(-c3ccccn3)c2)c1CCC(=O)O please
Result: 9.01
